Taken from ChEMBL document CHEMBL1122998.

System: Cavia porcellus
Assay: Percentage decrease in bronchodilator activity against serotonin-induced bronchospasm reaction in guinea pig by intraveneous administration at dose 250 ug/kg
Type: functional
MEASUREMENT NAME: Decrease

compound=Cn1c(=O)c2c(ncn2CCCN2CCN(CCCSc3ccccc3)CC2)n(C)c1=O assay_value=69%
compound="Cn1c(=O)c2c(ncn2CC(O)CN2CCN(CCCCSc3ccc(Cl)cc3)CC2)n(C)c1=O (stereo not given)" assay_value=0%
compound="Cn1c(=O)c2c(ncn2CCCN2CCN(CC(O)CSc3ccccc3)CC2)n(C)c1=O (stereo not given)" assay_value=0%
compound=Cn1c(=O)c2c(ncn2CN2CCN(CCCSc3ccccc3)CC2)n(C)c1=O assay_value=0%
compound="CC(C(=O)N1CCN(CCCSc2ccccc2)CC1)n1cnc2c1c(=O)n(C)c(=O)n2C (stereo not given)" assay_value=0%
compound="Cn1cnc2c1c(=O)n(CC(O)CN1CCN(CCCOc3ccccc3)CC1)c(=O)n2C (stereo not given)" assay_value=50%
compound="Cc1ccc(SCCCN2CCN(CC(O)Cn3c(=O)c4c(ncn4C)n(C)c3=O)CC2)cc1 (stereo not given)" assay_value=42%
compound="Cn1c(=O)c2c(ncn2CC(O)CN2CCCN(CCCSc3ccccc3)CC2)n(C)c1=O (stereo not given)" assay_value=0%
compound=COc1ccc(SCCCN2CCN(CCCn3cnc4c3c(=O)n(C)c(=O)n4C)CC2)cc1 assay_value=0%
compound="Cn1c(=O)c2c(ncn2CC(O)CN2CCN(CCCCOc3ccccc3)CC2)n(C)c1=O (stereo not given)" assay_value=22%
compound=Cn1c(=O)c2c(ncn2C/C=C/CN2CCN(CCCSc3ccccc3)CC2)n(C)c1=O assay_value=20%
compound=Cn1c(=O)c2c(ncn2CCCN2CCN(CCCOc3ccccc3)CC2)n(C)c1=O assay_value=35%
compound="Cn1c(=O)c2c(ncn2CC(O)CN2CCN(CCCOc3ccc(Cl)cc3)CC2)n(C)c1=O (stereo not given)" assay_value=0%
compound=Cn1c(=O)c2c(ncn2CC(=O)N2CCN(CCCSc3ccccc3)CC2)n(C)c1=O assay_value=21%
compound="Cn1c(=O)c2c(ncn2CC(O)CN2CCN(CCCSc3ccc(Cl)cc3)CC2)n(C)c1=O (stereo not given)" assay_value=0%
compound=Cn1cnc2c1c(=O)n(CCCN1CCN(CCCSc3ccccc3)CC1)c(=O)n2C assay_value=25%
compound=Cn1c(=O)c2c(ncn2CCCN2CCN(CCCSc3ccc(Cl)cc3)CC2)n(C)c1=O assay_value=0%
compound=Cn1cnc2c1c(=O)n(CCCN1CCN(CCCSc3ccc(Cl)cc3)CC1)c(=O)n2C assay_value=47%
compound=COc1cc(OCCCN2CCN(CCCn3cnc4c3c(=O)n(C)c(=O)n4C)CC2)cc(OC)c1OC assay_value=0%
compound=Cn1c(=O)c2nc[nH]c2n(C)c1=O.O assay_value=59%

* * *

Tested on: Cavia porcellus
Test: Percentage decrease in bronchodilator activity against serotonin-induced bronchospasm reaction in guinea pig by intraveneous administration at dose 250 ug/kg
Type: functional
Below is a list of entries, each paired with its recorded Decrease value.
MEASUREMENT NAME: Decrease (%)

compound=Cn1c(=O)c2c(ncn2CCCCCCN2CCN(CCCCSc3ccccc3)CC2)n(C)c1=O measurement_name=Decrease assay_value=23
compound="COc1ccc(OCCCN2CCN(CC(O)Cn3c(=O)c4c(ncn4C)n(C)c3=O)CC2)cc1 (stereo not drawn)" measurement_name=Decrease assay_value=3
compound=Cn1c(=O)c2c(ncn2CCN2CCN(CCCSc3ccccc3)CC2)n(C)c1=O measurement_name=Decrease assay_value=48
compound="Cc1cc(OCCCN2CCN(CC(O)Cn3c(=O)c4c(ncn4C)n(C)c3=O)CC2)cc(C)c1Cl (stereo not drawn)" measurement_name=Decrease assay_value=53
compound=Cn1c(=O)c2c(ncn2CCC(=O)N2CCN(CCCSc3ccccc3)CC2)n(C)c1=O measurement_name=Decrease assay_value=0
compound="COc1ccc(OCCCN2CCN(CC(O)Cn3cnc4c3c(=O)n(C)c(=O)n4C)CC2)cc1 (stereo not drawn)" measurement_name=Decrease assay_value=0
compound=CN(CCCSc1ccccc1)CCN(C)CCCn1cnc2c1c(=O)n(C)c(=O)n2C measurement_name=Decrease assay_value=50
compound="Cc1ccc(SCCCN2CCN(CC(O)Cn3cnc4c3c(=O)n(C)c(=O)n4C)CC2)cc1 (stereo not drawn)" measurement_name=Decrease assay_value=0
